Test system: L1210
Assay: In vitro cytotoxicity against L1210 (murine leukemia) cells.
Type: functional, cell-based
Details: Mus musculus
Starred links: 1 amine or outer side, 2 acyl side, 3 side chain; linkers in the order of their positions; H or OH if unused. Non-standard residues stand in square brackets, D forms with d. Residues, ends and D or L forms follow the SMILES beside them. ξ: configuration not given here. X1 = CN(CCc1ccc(Oc2cccc(CCC(=O)[*:2])c2)cc1)[*:1]; NMeY = CN[C@@H](Cc1ccc(O)cc1)C(=O)O; ξA = CC(N)C(=O)O
What log10 IC50 was measured for each of the following?
Hey, these are logged values: log10 of IC50, µg/mL being the unit before logging.

Lookup: Please state recorded log10 IC50 (tested on L1210) of COC(=O)[C@@H]1Cc2ccc(cc2)Oc2cc(ccc2OC(=O)c2ccccc2)C[C@H](N(C)C(=O)OCc2ccccc2)C(=O)NC(C)C(=O)N[C@@H](C)C(=O)N(C)[C@@H](Cc2ccc(OC)cc2)C(=O)N[C@@H](C)C(=O)N1C (stereo partly specified)
Found: 1.00

Lookup: Notebook entry, L1210 assay: log10 IC50 of `CN[C@H]1Cc2ccc(O)c(c2)Oc2ccc(cc2)C[C@@H](C(=O)O)N(C)C(=O)[C@H](C)NC(=O)[C@H](Cc2ccc(OC)cc2)N(C)C(=O)[C@H](C)NC(=O)[C@@H](C)NC1=O` = ?
Found: 1.00

Lookup: # returns recorded log10 IC50 (system: L1210) for `COc1ccc(C[C@H]2C(=O)N[C@@H](C)C(=O)N(C)[C@H]3Cc4ccc(cc4)Oc4cc(ccc4OC)C[C@@H](C(=O)N[C@H](C)C(=O)N[C@@H](C)C(=O)N2C)N(C)C3=O)cc1`
Found: -2.70

Lookup: Recorded log10 IC50 for `COC(=O)[C@@H]1Cc2ccc(OC)c(c2)Oc2ccc(cc2)C[C@H](N(C)C(=O)OCc2ccccc2)C(=O)N1` with L1210, please?
Found: -1.30

Lookup: // map COc1ccc(C[C@H]2C(=O)N[C@@H](C)C(=O)N(C)CCc3ccc(cc3)Oc3cccc(c3)CCC(=O)NC(C)C(=O)N[C@@H](C)C(=O)N2C)cc1 (stereo partly specified) (cyclo(A[NMeY](Me)A[X1][ξA])) to recorded log10 IC50 (system: L1210)
Found: 1.30

Lookup: Fill in the recorded log10 IC50 for this compound, with L1210 as test system: COc1ccc(C[C@H]2C(=O)N[C@@H](C)C(=O)N(C)[C@H]3C(=O)N(C)[C@H]3C(=O)NC(C)C(=O)N[C@@H](C)C(=O)N2C)cc1 (stereo partly specified)
Found: 1.70

Lookup: // fetch L1210 log10 IC50 for `COc1ccc(C[C@H]2C(=O)N[C@@H](C)C(=O)N(C)[C@H]3Cc4ccc(cc4)Oc4cc(ccc4OC)C[C@H](NC3=O)C(=O)N[C@H](C)C(=O)N[C@@H](C)C(=O)N2C)cc1`
Found: -3.00

Lookup: I'm curious: which log10 IC50 was measured for `COc1ccc(C[C@H]2C(=O)N[C@@H](C)C(=O)N(C)[C@H]3Cc4ccc(cc4)Oc4cc(ccc4O)C[C@@H](C(=O)N[C@H](C)C(=O)N[C@@H](C)C(=O)N2C)N(C)C3=O)cc1` tested on L1210?
Found: -2.70

Lookup: Reported log10 IC50 for L1210, given `COC(=O)[C@@H]1Cc2ccc(OC)c(c2)Oc2ccc(cc2)C[C@H](N(C)C(=O)OCc2ccccc2)C(=O)N1C` ?
Found: -1.40

Lookup: Under L1210: log10 IC50 value of `COC(=O)[C@@H]1Cc2ccc(OC)c(c2)Oc2ccc(cc2)C[C@H](N(C)C(=O)OC(C)(C)C)C(=O)N1C` ?
Found: -1.52

Lookup: Observed log10 IC50 on L1210 for `COC(=O)[C@@H]1Cc2ccc(OC)c(c2)Oc2ccc(cc2)C[C@H](N(C)C(=O)OC(C)(C)C)C(=O)N1` , please.
Found: -1.22

Lookup: Please tell me: log10 IC50 of `COc1ccc(C[C@H]2C(=O)N[C@@H](C)C(=O)N[C@H](C)C(=O)N[C@@H](C)C(=O)N2C)cc1` , system L1210?
Found: 1.30

Lookup: Hi! What's the reported log10 IC50 for `COc1ccc(C[C@H]2C(=O)N[C@@H](C)C(=O)N(C)Cc3ccccc3CC(=O)N[C@H](C)C(=O)N[C@@H](C)C(=O)N2C)cc1` on L1210?
Found: 1.40
